tested on: Streptococcus pneumoniae; experiment: Antibacterial activity against Streptococcus pneumoniae DAW30 by micro-broth dilution method; assay type: functional
Parameter: MIC. Scope: all listed entries.
endpoint_label: MIC (µg/mL)

>>> result_value("CCC(C)[C@H]1C(=O)/C(=C(\\C)O)C(=O)N1Cc1ccccc1 (stereo not given in full)")
50
>>> result_value("CC(C)=CCCC(C)CCN1C(=O)/C(=C(/C)O)C(=O)[C@@H]1CC(C)C (stereo not given in full)")
3.25
>>> result_value("CCCCCCCCCCN1C(=O)/C(=C(/C)O)C(=O)[C@@H]1C(C)C")
6.25
>>> result_value("CCCCN1C(=O)/C(=C(/C)O)C(=O)[C@@H]1CC(C)C")
100
>>> result_value("C/C(O)=C1\\C(=O)[C@@H](CC(C)C)N(Cc2ccc(F)cc2)C1=O")
25
>>> result_value("C/C(O)=C1\\C(=O)[C@H](Cc2ccccc2)N(Cc2ccccc2)C1=O")
100
>>> result_value("CCCCCCCCCCN1C(=O)/C(=C(/C)O)C(=O)[C@H]1CC(C)C")
6.25
>>> result_value("C/C(O)=C1\\C(=O)[C@H](CC(C)C)N(Cc2ccc(-c3ccccc3)cc2)C1=O")
12.5
>>> result_value("C/C(O)=C1\\C(=O)[C@H](CC(C)C)N(Cc2ccc(F)cc2)C1=O")
50
>>> result_value("C/C(O)=C1\\C(=O)[C@H](CC(C)C)N(CC2=CCC3CC2C3(C)C)C1=O (stereo not given in full)")
50

* * *

test system: Staphylococcus aureus; experiment: Antibacterial activity against methicillin-sensitive Staphylococcus aureus 8325 ATCC 35556 by micro-broth dilution method; assay type: functional
Activity calls are given as the source filed them. The calls are words filed in the database; no cut-off is given here.
endpoint_label: Activity

>>> result_value("CC(C)C[C@H]1C(O)=C(C#N)C(=O)N1Cc1ccc(F)cc1")
"inactive"
>>> result_value("CCC(C)[C@H]1C(O)=C(C#N)C(=O)N1Cc1ccccc1 (stereo partly specified)")
"inactive"
>>> result_value("N#CC1=C(O)[C@@H](Cc2ccccc2)N(Cc2ccccc2)C1=O")
"inactive"
>>> result_value("COc1cccc(CN2C(=O)C(C#N)=C(O)[C@@H]2CC(C)C)c1")
"inactive"
>>> result_value("N#CC1=C(O)[C@H](Cc2ccccc2)N(Cc2ccccc2)C1=O")
"inactive"
>>> result_value("CC(C)C[C@@H]1C(O)=C(C#N)C(=O)N1Cc1ccc(F)cc1")
"inactive"

* * *

system: Staphylococcus aureus; experiment: Antibacterial activity against methicillin-resistant Staphylococcus aureus ATCC 33591 by micro-broth dilution method; type: functional
Each record here notes measured MIC.
endpoint_label: MIC (µg/mL)

>>> result_value("CCC(C)[C@H]1C(=O)/C(=C(\\C)O)C(=O)N1Cc1ccccc1 (stereo not given in full)")
6.25
>>> result_value("C/C(O)=C1\\C(=O)[C@H](CC(C)C)N(Cc2ccc(-c3ccccc3)cc2)C1=O")
0.8
>>> result_value("CCCCCCCCCCN1C(=O)/C(=C(/C)O)C(=O)[C@@H]1C(C)C")
0.8
>>> result_value("CCCCCCCCCCN1C(=O)/C(=C(/C)O)C(=O)[C@@H]1CC(C)C")
0.8
>>> result_value("C/C(O)=C1\\C(=O)[C@@H](CC(C)C)N(Cc2ccc(F)cc2)C1=O")
12.5

Provenance of the data: ChEMBL document CHEMBL1141572
